Sequence of the target: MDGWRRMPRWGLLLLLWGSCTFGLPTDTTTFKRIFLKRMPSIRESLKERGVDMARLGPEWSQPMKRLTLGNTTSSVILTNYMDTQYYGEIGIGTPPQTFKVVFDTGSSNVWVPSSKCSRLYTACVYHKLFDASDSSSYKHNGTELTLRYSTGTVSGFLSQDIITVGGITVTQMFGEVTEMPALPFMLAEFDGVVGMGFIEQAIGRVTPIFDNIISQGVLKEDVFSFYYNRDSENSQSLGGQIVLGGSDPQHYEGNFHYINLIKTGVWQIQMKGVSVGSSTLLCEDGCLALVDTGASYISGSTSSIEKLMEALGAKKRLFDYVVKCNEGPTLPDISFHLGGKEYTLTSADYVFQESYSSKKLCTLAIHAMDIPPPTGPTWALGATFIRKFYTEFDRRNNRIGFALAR
Collected IC50 values appear next to each entry.
Reply with just the number (in nM).

These recorded examples may help you get a feel for the data.
{"COMPOUND": "CC(C)(C)OC(=O)N[C@@H](Cc1ccccc1)C(=O)N[C@@H](Cc1c[nH]cn1)C(=O)N[C@@H](CC1CCCCC1)[C@H](O)CSC1CCCCC1", "UNIT DESCRIPTOR": "nM", "READOUT VALUE": 100}
{"COMPOUND": "CC(C)S(=O)(=O)C[C@H](O)[C@H](CC1CCCCC1)NC(=O)[C@H](CCO)NC(=O)[C@H](Cc1ccccc1)NC(=O)OC(C)(C)C", "UNIT DESCRIPTOR": "nM", "READOUT VALUE": 20}
{"COMPOUND": "CCOC(=O)N[C@@H](Cc1ccccc1)C(=O)N[C@@H](Cc1c[nH]cn1)C(=O)N[C@@H](CC1CCCCC1)[C@@H](O)CS(=O)(=O)C(C)C", "UNIT DESCRIPTOR": "nM", "READOUT VALUE": 5}
{"COMPOUND": "CC(C)S(=O)(=O)C[C@H](O)[C@H](CC1CCCCC1)NC(=O)[C@@H](NC(=O)[C@H](Cc1ccccc1)NC(=O)OC(C)(C)C)[C@@H](C)OCc1ccccc1", "UNIT DESCRIPTOR": "nM", "READOUT VALUE": 6}
{"COMPOUND": "CC(C)(C)OC(=O)N[C@@H](Cc1ccccc1)C(=O)N[C@@H](Cc1c[nH]cn1)C(=O)N[C@@H](CC1CCCCC1)[C@@H](O)CSC1CCCCC1", "UNIT DESCRIPTOR": "nM", "READOUT VALUE": 4}
{"COMPOUND": "CC(C)S(=O)(=O)C[C@H](O)[C@H](CC1CCCCC1)NC(=O)[C@H](CO)NC(=O)[C@H](Cc1ccccc1)NC(=O)OC(C)(C)C", "UNIT DESCRIPTOR": "nM", "READOUT VALUE": 40}
{"COMPOUND": "CC(C)SC[C@H](O)[C@H](CC1CCCCC1)NC(=O)[C@H](C)NC(=O)[C@H](Cc1ccccc1)NC(=O)OC(C)(C)C", "UNIT DESCRIPTOR": "nM", "READOUT VALUE": 9.9}
{"COMPOUND": "CC(C)S(=O)(=O)C[C@H](O)[C@H](CC1CCCCC1)NC(=O)[C@H](Cc1c[nH]cn1)NC(=O)[C@H](COCc1ccccc1)NC(=O)OC(C)(C)C", "UNIT DESCRIPTOR": "nM", "READOUT VALUE": 75}

The value of IC50 measured for the compound CSC[C@H](O)[C@H](CC1CCCCC1)NC(=O)[C@H](Cc1c[nH]cn1)NC(=O)[C@H](Cc1ccccc1)NC(=O)OC(C)(C)C turned out to be 10

In plain terms, CC(C)C[C@H](NC(=O)[C@H](Cc1ccccc1)NC(=O)OC(C)(C)C)C(=O)N[C@@H](CC1CCCCC1)[C@@H](O)CS(=O)(=O)C(C)C has a documented IC50 of 4

For this compound ( O=C(NC(Cc1cnc[nH]1)C(=O)N[C@@H](CC1CCCCC1)[C@@H](O)CS(=O)(=O)C1CCCCC1)C(Cc1ccccc1)Cc1ccccc1 (stereo partly specified) ), measured IC50 is 40

Sample CC(C)(C)OC(=O)N[C@@H](Cc1ccccc1)C(=O)N[C@@H](Cc1c[nH]cn1)C(=O)N[C@@H](CC1CCCCC1)[C@@H](O)CS(C)(=O)=O ; IC50 observed: 40

IC50 for CC(C)S(=O)(=O)C[C@H](O)[C@H](CC1CCCCC1)NC(=O)[C@H](CCCNC(=O)OCc1ccccc1)NC(=O)[C@H](Cc1ccccc1)NC(=O)OC(C)(C)C is 60
